We begin with a simple list: items and their reported growth.
# Tested on: CCRF-CEM leukemia
# Test: NCI-60 one-dose screen, 48 h (100 = growth as untreated, 0 = no growth, -100 = all killed)
# Test Context: 10 µM unless noted
Compounds without any hit were thinned out: in the full panel of roughly 83,000, 20% have a hit.

>  <Compound>
C=C1CCC2C3(C)COC(c4cccc(F)c4)OC3CCC2(C)C1C/C=C1/C(=O)OCC1O (stereo not drawn)

>  <Assayed Target>
CCRF-CEM leukemia

>  <growth, %>
16

$$$$
>  <Compound>
COc1ccc(-c2ccnc(SCc3cc4ccccc4[nH]c3=O)n2)cc1OC

>  <Assayed Target>
CCRF-CEM leukemia

>  <growth, %>
106

$$$$
>  <Compound>
Cc1ccccc1[C@H]1C(C(=O)c2ccc(Cl)cc2)C2(N[C@@H]1c1ccccc1)C(=O)Nc1ccc(Cl)cc12 (stereo partly drawn)

>  <Assayed Target>
CCRF-CEM leukemia

>  <growth, %>
-14.9

$$$$
>  <Compound>
Cc1cc(=O)oc2cc(OCCCOc3ccc(/C=C/C(=O)Nc4ccccc4N)cc3)ccc12

>  <Assayed Target>
CCRF-CEM leukemia

>  <growth, %>
9.74

$$$$
>  <Compound>
C=C1CC[C@@H]2[C@]3(C)COC(c4cn[nH]c4-c4ccccc4)O[C@@H]3CC[C@@]2(C)[C@@H]1C/C=C1/C(=O)OCC1O (stereo partly drawn)

>  <Assayed Target>
CCRF-CEM leukemia

>  <growth, %>
2.72

$$$$
>  <Compound>
Cn1cc(-c2cc(N)n3nc(-c4cn(C)c5ccc(Cl)cc45)cc3n2)c2ccccc21

>  <Assayed Target>
CCRF-CEM leukemia

>  <growth, %>
115

$$$$
>  <Compound>
COc1ccc(-c2nc3ccc(C(=O)NN4C(=O)c5ccc([N+](=O)[O-])cc5C4=O)cc3[nH]2)cc1

>  <Assayed Target>
CCRF-CEM leukemia

>  <growth, %>
83.3

$$$$
>  <Compound>
COc1ccc(N2N=C(c3ccc4c(c3)OCO4)CC2c2cccc(NC(=O)CCCNS(=O)(=O)c3ccc(F)cc3)c2)cc1 (stereo not drawn)

>  <Assayed Target>
CCRF-CEM leukemia

>  <growth, %>
53.5

$$$$

----------
Measured growth, listed per entry for reference.
# System: BT-549 breast
# Test: NCI-60 one-dose screen, 48 h (100 = growth as untreated, 0 = no growth, -100 = all killed)
# Test Context: 10 µM unless noted
About 83,000 compounds went through this panel and 20% of them were active in at least one assay; those are over-represented in the sample as a whole.
Assay Endpoint: growth (%)

>  <Compound>
N/C(=N\c1nc2ccccc2s1)NC(=O)Nc1ccccc1Br

>  <Assayed Target>
BT-549 breast

>  <Units Of Measure>
%

>  <Result Number>
-7.4

$$$$
>  <Compound>
CC1[C@H]2[C@H](C[C@H]3[C@@H]4CC=C5c6sc(Nc7ccccc7F)nc6CC[C@]5(C)[C@H]4CC[C@@]32C)O[C@]12CC[C@@H](C)CO2 (stereo partly specified)

>  <Assayed Target>
BT-549 breast

>  <Units Of Measure>
%

>  <Result Number>
55.2

$$$$
>  <Compound>
Cc1cc(=O)oc2cc(OCCCOc3ccc(/C=C/C(=O)Nc4ccccc4N)cc3)ccc12

>  <Assayed Target>
BT-549 breast

>  <Units Of Measure>
%

>  <Result Number>
-59.7

$$$$
>  <Compound>
CCCCSc1nc(NCCc2c[nH]c3ccccc23)c(C#N)c(-c2ccc(OC)cc2)n1

>  <Assayed Target>
BT-549 breast

>  <Units Of Measure>
%

>  <Result Number>
99.4

$$$$
>  <Compound>
C=CC(=O)Nc1ccc(C)c(Oc2ccc(Cl)cc2)c1

>  <Assayed Target>
BT-549 breast

>  <Units Of Measure>
%

>  <Result Number>
22.8

$$$$
>  <Compound>
CC(C)Sc1nc(NCCc2c[nH]c3ccccc23)c(C#N)c(-c2ccccc2)n1

>  <Assayed Target>
BT-549 breast

>  <Units Of Measure>
%

>  <Result Number>
55.1

$$$$
>  <Compound>
CC1=C(C(=O)c2ccccc2)C(c2ccc(-n3cncn3)cc2)n2c(nc3ccccc32)N1 (stereo unspecified)

>  <Assayed Target>
BT-549 breast

>  <Units Of Measure>
%

>  <Result Number>
67.4

$$$$
>  <Compound>
COc1cc2nc(SCc3ccccc3)n(-c3ccc(Cl)cc3)c(=O)c2cc1OC

>  <Assayed Target>
BT-549 breast

>  <Units Of Measure>
%

>  <Result Number>
0.336

$$$$
>  <Compound>
Cc1ccc(C(=O)C(c2c[nH]c3ccccc23)c2c[nH]c3ccccc23)cc1

>  <Assayed Target>
BT-549 breast

>  <Units Of Measure>
%

>  <Result Number>
69.1

$$$$
>  <Compound>
COc1ccc(C(=O)/C=C/c2ccc(OCc3ccccc3)c(OC)c2)cc1OC

>  <Assayed Target>
BT-549 breast

>  <Units Of Measure>
%

>  <Result Number>
12.6

$$$$
>  <Compound>
Cn1cc(-c2nc(N)nnc2-c2c[nH]c3ccc(F)cc23)c2cccnc21

>  <Assayed Target>
BT-549 breast

>  <Units Of Measure>
%

>  <Result Number>
38

$$$$
>  <Compound>
Cc1cc(=O)oc2cc(OCCOc3ccc(/C=C/C(=O)Nc4ccccc4N)cc3)ccc12

>  <Assayed Target>
BT-549 breast

>  <Units Of Measure>
%

>  <Result Number>
-49.2

$$$$
>  <Compound>
Cn1cc(-c2nnc(N)nc2-c2c[nH]c3ccc(F)cc23)c2cccnc21

>  <Assayed Target>
BT-549 breast

>  <Units Of Measure>
%

>  <Result Number>
34

$$$$
>  <Compound>
S=C(Nc1ccccc1)Nc1ccc(OCc2nc3ccccc3[nH]2)cc1

>  <Assayed Target>
BT-549 breast

>  <Units Of Measure>
%

>  <Result Number>
49.4

$$$$
>  <Compound>
CC(C)C(C(=O)O)n1c(O)c(/C=C2/C=c3cc4c(cc3=NC2=O)OCO4)sc1=S (stereo unspecified)

>  <Assayed Target>
BT-549 breast

>  <Units Of Measure>
%

>  <Result Number>
111

$$$$
>  <Compound>
Nc1nc(-c2ccccc2)c(N=Nc2ccc([N+](=O)[O-])cc2Cl)s1

>  <Assayed Target>
BT-549 breast

>  <Units Of Measure>
%

>  <Result Number>
82.9

$$$$
>  <Compound>
CN(C)c1ccnc(CNCCSC2(c3ccc(C(F)(F)F)cc3)c3ccccc3C=Cc3ccccc32)c1

>  <Assayed Target>
BT-549 breast

>  <Units Of Measure>
%

>  <Result Number>
-6.19

$$$$
>  <Compound>
CC(=O)c1cccc(NC(=O)CCC(=O)NS(=O)(=O)c2ccc(C)cc2)c1

>  <Assayed Target>
BT-549 breast

>  <Units Of Measure>
%

>  <Result Number>
107

$$$$
>  <Compound>
Cc1nc(Nc2ccccn2)sc1C(=O)CC(SCC(=O)Nc1ccc(Cl)cc1)c1ccccc1F (stereo unspecified)

>  <Assayed Target>
BT-549 breast

>  <Units Of Measure>
%

>  <Result Number>
24.2

$$$$
>  <Compound>
Cc1c(C(=O)NNC(=O)c2ccc(Cl)cc2)nnn1-c1ccc(Cl)cc1

>  <Assayed Target>
BT-549 breast

>  <Units Of Measure>
%

>  <Result Number>
94.1

$$$$
>  <Compound>
O=c1oc2ccccc2cc1-c1csc(N=Nc2c(O)[nH]c3ccc(Cl)cc23)n1

>  <Assayed Target>
BT-549 breast

>  <Units Of Measure>
%

>  <Result Number>
104

$$$$
>  <Compound>
N=C1N=C(SCc2nc3ccccc3[nH]2)NC(=O)/C1=C/c1ccc(Cl)cc1

>  <Assayed Target>
BT-549 breast

>  <Units Of Measure>
%

>  <Result Number>
114

$$$$
>  <Compound>
O=C(c1ccc(OCCN2CCOCC2)cc1)C1[C@H](c2ccc(Cl)cc2)[C@@H](c2ccccc2)NC12C(=O)Nc1ccc(Cl)cc12 (stereo partly specified)

>  <Assayed Target>
BT-549 breast

>  <Units Of Measure>
%

>  <Result Number>
57.1

$$$$
>  <Compound>
COc1cc2oc(-c3cccc(C(=O)Nc4ccc(Cl)cc4)c3)cc(=O)c2c(OCC(=O)N[C@@H](Cc2ccccc2)C(=O)O)c1OC

>  <Assayed Target>
BT-549 breast

>  <Units Of Measure>
%

>  <Result Number>
125

$$$$
>  <Compound>
CCOC(=O)COc1c(OC)c(OC)cc2oc(-c3cccc(C(=O)Nc4ccc(Cl)cc4)c3)cc(=O)c12

>  <Assayed Target>
BT-549 breast

>  <Units Of Measure>
%

>  <Result Number>
21.2

$$$$
>  <Compound>
C#C[C@]1(O)CC[C@H]2[C@@H]3CC=C4c5sc(-c6ccc(O)c(O)c6)nc5CC[C@]4(C)[C@H]3CC[C@@]21C

>  <Assayed Target>
BT-549 breast

>  <Units Of Measure>
%

>  <Result Number>
-93.3

$$$$
>  <Compound>
CN(C)CCn1c2ccccc2c2nc3cc4ccccc4cc3nc21

>  <Assayed Target>
BT-549 breast

>  <Units Of Measure>
%

>  <Result Number>
52.8

$$$$
>  <Compound>
CN(C)c1nc(NCCNS(=O)(=O)c2ccc(C3=Nc4c(N)nc(N)nc4NC(c4ccc(C(F)(F)F)cc4)C3)cc2)nc(Nc2ccc(F)cc2)n1 (stereo unspecified)

>  <Assayed Target>
BT-549 breast

>  <Units Of Measure>
%

>  <Result Number>
19.3

$$$$
>  <Compound>
CCCSc1nc(Nc2ccc(S(N)(=O)=O)cc2)c(C#N)c(-c2cc(OC)c(OC)c(OC)c2)n1

>  <Assayed Target>
BT-549 breast

>  <Units Of Measure>
%

>  <Result Number>
16.5

$$$$
>  <Compound>
CCOC(=O)c1ccc(Nc2nc(NN)nc(-c3ccc(F)cc3)c2C#N)cc1

>  <Assayed Target>
BT-549 breast

>  <Units Of Measure>
%

>  <Result Number>
111

$$$$
>  <Compound>
C=C1CC[C@@H]2[C@]3(C)COC(c4cn[nH]c4-c4ccc(OC)cc4)O[C@@H]3CC[C@@]2(C)[C@@H]1C/C=C1/C(=O)OCC1O (stereo partly specified)

>  <Assayed Target>
BT-549 breast

>  <Units Of Measure>
%

>  <Result Number>
-32.9

$$$$
>  <Compound>
Cc1ccccc1[C@H]1C(C(=O)c2ccc(Cl)cc2)C2(N[C@@H]1c1ccccc1)C(=O)Nc1ccccc12 (stereo partly specified)

>  <Assayed Target>
BT-549 breast

>  <Units Of Measure>
%

>  <Result Number>
-66

$$$$
>  <Compound>
Cc1cc(=O)oc2cc(OCCCCOc3ccc(/C=C/C(=O)Nc4ccccc4N)cc3)ccc12

>  <Assayed Target>
BT-549 breast

>  <Units Of Measure>
%

>  <Result Number>
-23.9

$$$$
>  <Compound>
O=c1[nH]n(C(=S)N/N=C/c2ccccc2Cl)c(=O)c2ccccc12

>  <Assayed Target>
BT-549 breast

>  <Units Of Measure>
%

>  <Result Number>
-57.5

$$$$
>  <Compound>
CC(=O)Nc1ccc(-c2cn(-c3cccc(C(=O)Nc4ccc(N5CCN(C)CC5)cc4)c3)nn2)cn1

>  <Assayed Target>
BT-549 breast

>  <Units Of Measure>
%

>  <Result Number>
74.6

$$$$
>  <Compound>
CC(=O)OC[C@@]1(C)C2CC[C@]3(C)C(CC=C4C5CC(C)(C)CC[C@]5(C(=O)Nc5cccc(C)c5)CC[C@]43C)[C@@]2(C)C[C@@H](OC(C)=O)[C@@H]1OC(C)=O (stereo partly specified)

>  <Assayed Target>
BT-549 breast

>  <Units Of Measure>
%

>  <Result Number>
47.4

$$$$
